Every entry's value here was drawn from ChEMBL document CHEMBL1129498.

Measured IC50 accompanies every entry in the list below.
Molecular target: Endothelin-1 receptor (Rattus norvegicus)
Test: Inhibitory activity was evaluated against ET- A Binding to Endothelin A receptor in MMQ cell homogenates
Just the number please, in nM, no unit attached.

A selection of reference data follows.
[
  {
    "COMPOUND": "Cc1oc([C@@H](Cc2cn(C)c3ccccc23)NC(=O)[C@H](CC(C)C)NC(=O)Nc2ccccc2)nc1C(=O)O",
    "UNIT_DESCRIPTOR": "nM",
    "IC50": 16
  },
  {
    "COMPOUND": "Cc1oc([C@@H](Cc2cn(C)c3ccccc23)NC(=O)[C@H](CC(C)C)NC(=O)NC2CCC(O)CC2)nc1C(=O)O (stereo not given in full)",
    "UNIT_DESCRIPTOR": "nM",
    "IC50": 2520
  },
  {
    "COMPOUND": "Cc1oc([C@@H](Cc2cn(C)c3ccccc23)NC(=O)[C@H](CC(C)C)NC(=O)NC2C3CC4CC(C3)CC2C4)nc1C(=O)O (stereo not given in full)",
    "UNIT_DESCRIPTOR": "nM",
    "IC50": 440
  },
  {
    "COMPOUND": "Cc1oc([C@@H](Cc2c[nH]c3ccccc23)NC(=O)[C@H](CC(C)C)NC(=O)N2CCCCCC2)nc1CC(=O)O",
    "UNIT_DESCRIPTOR": "nM",
    "IC50": 9600
  },
  {
    "COMPOUND": "Cc1oc([C@@H](Cc2cn(C)c3ccccc23)NC(=O)[C@H](CC(C)C)NC(=O)NC2CCCCCC2)nc1C(=O)O",
    "UNIT_DESCRIPTOR": "nM",
    "IC50": 400
  },
  {
    "COMPOUND": "Cc1oc([C@@H](Cc2cn(C)c3ccccc23)NC(=O)[C@H](CC(C)C)NC(=O)Nc2ccccn2)nc1C(=O)O",
    "UNIT_DESCRIPTOR": "nM",
    "IC50": 74
  },
  {
    "COMPOUND": "Cc1oc([C@@H](Cc2cn(C)c3ccccc23)NC(=O)[C@H](CC(C)C)NC(=O)N2CCOC23CCCCC3)nc1C(=O)O",
    "UNIT_DESCRIPTOR": "nM",
    "IC50": 5.7
  },
  {
    "COMPOUND": "Cc1oc([C@@H](Cc2cn(C)c3ccccc23)NC(=O)[C@H](CC(C)C)NC(=O)NC2CC3CCC2C3)nc1C(=O)O (stereo in doubt; 15o)",
    "UNIT_DESCRIPTOR": "nM",
    "IC50": 800
  },
  {
    "COMPOUND": "Cc1[nH]c([C@@H](Cc2cn(C)c3ccccc23)NC(=O)[C@H](CC(C)C)NC(=O)NC2CCCCC2)nc1C(=O)O",
    "UNIT_DESCRIPTOR": "nM",
    "IC50": 11
  },
  {
    "COMPOUND": "Cc1oc([C@@H](Cc2cn(C)c3ccccc23)NC(=O)[C@H](CC(C)C)NC(=O)NC2CCCC(C)C2)nc1C(=O)O (stereo not given in full)",
    "UNIT_DESCRIPTOR": "nM",
    "IC50": 960
  }
]

Task: Quick one: IC50 for Cc1[nH]c([C@@H](Cc2cn(C)c3ccccc23)NC(=O)[C@H](CC(C)C)NC(=O)NC2CC3CCC2C3)nc1C(=O)O (stereo in doubt; 14o) ?
Result: 29

Task: Next: "Cc1oc([C@@H](Cc2c[nH]c3ccccc23)NC(=O)[C@H](CC(C)C)NC(=O)N2CCCCCC2)nc1C(=O)NO"
Result: 2900

Task: Next: "Cc1[nH]c([C@@H](Cc2cn(C)c3ccccc23)NC(=O)[C@H](CC(C)C)NC(=O)Nc2ccccc2)nc1C(=O)O"
Result: 7.6

Task: Next: "Cc1oc([C@@H](Cc2cn(C)c3ccccc23)NC(=O)[C@H](CC(C)C)NC(=O)NC2CCCCC2)nc1C(=O)O"
Result: 220

* * *

Tested on: MMQ
Assay: Inhibitory activity was evaluated by measuring the PI hydrolysis in MMQ cell line
Type: functional, cell-based, Rattus norvegicus
Details: mmq
QUANTITY_MEASURED: pIC50
// pIC50: -log10(molar conc.)

[
  {
    "MOLECULE": "Cc1[nH]c([C@@H](Cc2cn(C)c3ccccc23)NC(=O)[C@H](CC(C)C)NC(=O)NC2CC3CCC2C3)nc1C(=O)O (stereo in doubt; 14p)",
    "pIC50": 7.44
  }
]

Let us move to another entry and its pIC50.
Task: Quick one: pIC50 for Cc1[nH]c([C@@H](Cc2cn(C)c3ccccc23)NC(=O)[C@H](CC(C)C)NC(=O)NC2CC3CCC2C3)nc1C(=O)O (stereo in doubt; 14o) ?
Result: 7.80

* * *

Measured IC50 accompanies every entry in the list below.
Biological target: UniProt P35463
Sequence (P35463 whole entry): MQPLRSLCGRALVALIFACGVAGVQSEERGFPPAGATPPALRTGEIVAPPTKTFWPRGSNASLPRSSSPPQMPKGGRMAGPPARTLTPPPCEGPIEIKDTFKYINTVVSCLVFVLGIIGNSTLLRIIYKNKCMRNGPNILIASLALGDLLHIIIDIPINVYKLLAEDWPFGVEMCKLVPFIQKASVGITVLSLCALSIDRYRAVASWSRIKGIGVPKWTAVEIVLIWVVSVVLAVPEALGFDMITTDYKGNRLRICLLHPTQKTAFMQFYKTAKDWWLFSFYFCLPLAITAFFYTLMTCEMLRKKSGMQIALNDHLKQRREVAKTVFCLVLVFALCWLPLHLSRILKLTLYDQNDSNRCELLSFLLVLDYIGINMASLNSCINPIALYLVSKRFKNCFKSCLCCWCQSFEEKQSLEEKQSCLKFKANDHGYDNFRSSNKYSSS
Just the number please, in µM, no unit attached.

A selection of reference data follows.
[
  {
    "MOLECULE": "Cc1oc([C@@H](Cc2cn(C)c3ccccc23)NC(=O)[C@H](CC(C)C)NC(=O)NC2CC3CCC2C3)nc1C(=O)O (stereo in doubt; 15o)",
    "MEASURED_TARGET": "UniProt P35463",
    "QUANTITY_MEASURED": "IC50",
    "VALUE": 67
  },
  {
    "MOLECULE": "Cc1oc([C@@H](Cc2cn(C)c3ccccc23)NC(=O)[C@H](CC(C)C)NC(=O)NC2C3CC4CC(C3)CC2C4)nc1C(=O)O (stereo not given in full)",
    "MEASURED_TARGET": "UniProt P35463",
    "QUANTITY_MEASURED": "IC50",
    "VALUE": 26
  },
  {
    "MOLECULE": "Cc1[nH]c([C@@H](Cc2cn(C)c3ccccc23)NC(=O)[C@H](CC(C)C)NC(=O)Nc2ccccc2)nc1C(=O)O",
    "MEASURED_TARGET": "UniProt P35463",
    "QUANTITY_MEASURED": "IC50",
    "VALUE": 37
  }
]

Task: Quick one: IC50 for "Cc1oc([C@@H](Cc2cn(C)c3ccccc23)NC(=O)[C@H](CC(C)C)NC(=O)N2CCCc3ccccc32)nc1C(=O)O" ?
Result: 66

Task: Next: "Cc1oc([C@@H](Cc2cn(C)c3ccccc23)NC(=O)[C@H](CC(C)C)NC(=O)NC2(C)CCCCC2)nc1C(=O)O"
Result: 56

Task: Next: Cc1[nH]c([C@@H](Cc2cn(C)c3ccccc23)NC(=O)[C@H](CC(C)C)NC(=O)NC2CCCC(C)C2)nc1C(=O)O (stereo not given in full)
Result: 22

Task: Next: Cc1[nH]c([C@@H](Cc2cn(C)c3ccccc23)NC(=O)[C@H](CC(C)C)NC(=O)NC2CCCCC2C)nc1C(=O)O (stereo not given in full)
Result: 13

Task: Next: "CCn1cc(C[C@@H](NC(=O)[C@H](CC(C)C)NC(=O)NC2CCCCC2)c2nc(C(=O)O)c(C)[nH]2)c2ccccc21"
Result: 55

* * *

Target: Endothelin-1 receptor (Rattus norvegicus, UniProt P26684)
Sequence (P26684 whole entry): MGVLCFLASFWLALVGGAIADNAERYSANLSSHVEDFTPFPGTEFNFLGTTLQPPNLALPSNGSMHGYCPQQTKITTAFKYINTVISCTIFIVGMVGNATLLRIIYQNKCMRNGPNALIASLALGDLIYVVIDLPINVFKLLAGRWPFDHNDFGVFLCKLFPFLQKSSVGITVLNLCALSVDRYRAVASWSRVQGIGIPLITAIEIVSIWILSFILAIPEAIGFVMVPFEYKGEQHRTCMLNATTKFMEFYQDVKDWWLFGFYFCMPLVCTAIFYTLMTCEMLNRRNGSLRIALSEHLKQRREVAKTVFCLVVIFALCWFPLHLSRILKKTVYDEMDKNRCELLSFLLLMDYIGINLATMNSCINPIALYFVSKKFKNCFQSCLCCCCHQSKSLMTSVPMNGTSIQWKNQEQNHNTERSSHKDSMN
Experiment: Inhibitory activity was evaluated against ET- A Binding to Endothelin A receptor in MMQ cell homogenates
Measured IC50 accompanies every entry in the list below.
Just the number please, in µM, no unit attached.

A selection of reference data follows.
[
  {
    "MOLECULE": "COC(=O)C1(NC(=O)N[C@@H](CC(C)C)C(=O)N[C@H](Cc2cn(C)c3ccccc23)c2nc(C(=O)O)c(C)o2)CCCCC1",
    "MEASURED_TARGET": "Endothelin-1 receptor (Rattus norvegicus, UniProt P26684)",
    "IC50 / µM": 0.12
  },
  {
    "MOLECULE": "Cc1[nH]c([C@@H](Cc2cn(C)c3ccccc23)NC(=O)[C@H](CC(C)C)NC(=O)NC2CCC(O)CC2)nc1C(=O)O (some centres not stated)",
    "MEASURED_TARGET": "Endothelin-1 receptor (Rattus norvegicus, UniProt P26684)",
    "IC50 / µM": 0.11
  }
]

Task: Could you share what IC50 was measured for "Cc1oc([C@@H](Cc2c[nH]c3ccccc23)NC(=O)[C@H](CC(C)C)NC(=O)NCc2ccccc2)nc1C(=O)O" , tested on Endothelin-1 receptor (Rattus norvegicus, UniProt P26684)?
Result: 8.7
